molecular target: Endothelial PAS domain-containing protein 1 (Homo sapiens, UniProt Q99814); assay: Inhibition of HIF-2alpha (unknown origin)
Sequence (Q99814 whole entry, the tested form may be a part): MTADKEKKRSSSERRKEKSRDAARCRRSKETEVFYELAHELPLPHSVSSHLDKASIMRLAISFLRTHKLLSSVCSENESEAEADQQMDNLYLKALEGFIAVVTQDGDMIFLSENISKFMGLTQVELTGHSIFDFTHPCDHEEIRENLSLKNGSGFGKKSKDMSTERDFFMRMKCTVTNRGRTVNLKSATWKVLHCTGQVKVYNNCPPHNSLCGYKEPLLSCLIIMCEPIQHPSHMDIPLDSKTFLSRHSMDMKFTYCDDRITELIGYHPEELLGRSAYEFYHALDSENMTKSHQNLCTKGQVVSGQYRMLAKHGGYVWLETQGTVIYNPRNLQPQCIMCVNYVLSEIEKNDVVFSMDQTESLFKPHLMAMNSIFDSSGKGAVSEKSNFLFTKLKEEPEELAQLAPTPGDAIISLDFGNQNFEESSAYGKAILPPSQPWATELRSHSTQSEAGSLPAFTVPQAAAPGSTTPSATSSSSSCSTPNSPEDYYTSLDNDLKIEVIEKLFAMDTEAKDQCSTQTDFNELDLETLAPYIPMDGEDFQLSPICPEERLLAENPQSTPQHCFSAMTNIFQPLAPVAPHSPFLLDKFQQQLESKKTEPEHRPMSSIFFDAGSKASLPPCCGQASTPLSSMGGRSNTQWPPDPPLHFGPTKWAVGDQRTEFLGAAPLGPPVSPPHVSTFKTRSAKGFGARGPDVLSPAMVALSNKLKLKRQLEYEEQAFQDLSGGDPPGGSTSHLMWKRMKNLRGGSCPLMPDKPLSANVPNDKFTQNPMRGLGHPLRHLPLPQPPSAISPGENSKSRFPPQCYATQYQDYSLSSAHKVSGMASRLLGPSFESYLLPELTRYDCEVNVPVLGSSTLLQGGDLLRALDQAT
pEC50: −log10 of the molar value.
Each entry below carries its reported pEC50.
Measured property: pEC50

> print(dat)
                                   molecule  measured.property  result
1  N#Cc1cc(F)cc(Oc2ccc(S(=O)(=O)C(F)(F)F)c3[nH]ncc23)c1              pEC50  > 7.00
2  N#Cc1cc(F)cc(Oc2ccc3c4c2C(F)CC4(O)C(F)(F)S3(=O)=O)c1 (stereo not drawn)              pEC50  > 7.30
3  CS(=O)(=O)c1ccc([C@H]2CCCc3cc(F)cc(C#N)c32)c2c1[C@H](O)[C@H](F)[C@@H]2F              pEC50  > 7.00

Sourced from ChEMBL document CHEMBL5579853
